Overview of recorded remaining at 4 h for various molecules
- experimentalDetails: Metabolic stability in human plasma assessed as compound remaining at […] after 4 hrs by HPLC analysis
- Type: ADME, cell-free
- testParameters: read-out: Stability
Express the result in % but write the number alone.

## Task Look up and state reported remaining at 4 h for CCOC(=O)C1CCN(c2ccc(N3C[C@H](CNC(=O)c4ccc(Cl)s4)OC3=O)cc2)CC1 (mixture of isomers)
## Result 95

Continuing:
## Task Look up and state reported remaining at 4 h for CCOC(=O)C1CCCCN1c1ccc(N2C[C@H](CNC(=O)c3ccc(Cl)s3)OC2=O)cc1 (mixture of isomers)
## Result 100
